- target: gEgI WT: HSV2 gEgI heterodimer comprising gE and gI wildtype ectodomains (HSV2, UniProt P89475 21-416; P06764 21-256)
- assay: Biacore SPR, gEgI CHO BMP1181 at 10 µg/ml for 180 s over the mAb
measure: RU Ag/250 RU mAbs (RU Ag/250 RU mAbs)
// note: answer is a bare numeric in RU Ag/250 RU mAbs

binder	RU Ag/250 RU mAbs / RU Ag/250 RU mAbs
mAb clone 12, 13 (antibody, V domains shown, also called mAb 12; mAb12) VH: QVQLKESGPGLVAPSQSLSITCTVSGFSLTSYGVHWVRQPPGKGLEWLGVIWAGGSTNYNSALMSRLSISKDNSKSQVFLKMNSLQTDDTAMYFCARGGITSLHNYVMDYWGQGTSVTVSS VL: DIVLTQSPASLAVSLGQRATISCRASESVEYYGTSLMQWYQQKPGQPPKLLIYAASNVESGVPARFSGSGSGTHFSLNIHPVEEDDIAMYFCQQSRKVPSTFGGGTKLEIK	112
mAb clone 3, 21 (antibody, V domains shown) VH: EVQLQQSGPELVKPGASVKISCKTSGYTFTEYTMHWVKQSHGKSLEWIGGINPNNGGTSYNQKFKGKATLTVDKSSSTAYMELRSLTSEDSAVYYCARSLVEGDFAYWGQGTLVTVSA VL: DIVLTQSPASLAVSLGQRATISCRASQSVSTSSYSYMHWYQQKPGQPPKLLIKYASNLESGVPARFSGSGSGTDFTLNIHPVEEEDTATYYCQHSWEIPYTFGGGTKLEIK	3.41
mAb clone 19 (antibody, V domains shown) VH: QVQLQQSGAELVRPGVSVKISCKGSGYTFTDYAMHWVKQSHAKSLEWIGVISTYYGDARYNQKFKGKATMTVDKSSSTAYMELARLTSEDSAIYYCARRGITVVADYAMDYWGQGTSVTVSS VL: QIVLTQSPAIMSASPGEKVTMSCSASSSVTYMHWYQQKSGTSPKRWIYDTSKLASGVPARFSGSGSGTSYSLTISSMEAEDAATYYCQQWSSNPPTFGGGTKLEIK	6.49
mAb clone 34 (antibody, V domains shown) VH: EVKLVESGGGLVQPGGSLKLSCATSGFTFSDYYMYWVRQTPEKRLEWVAYISNGGDSTYYPDTVKGRFTISRDNAKNTLYLQMSRLKSEDTAMYYCARSYYGNPFPYWGQGTLVTVSA VL: ENVLTQSPAIMSASPGEKVTMTCRASSSVSSSYLHWYQQKSGASPKLWIYSTSNLASGVPARFSGSGSGTSYSLTISSVEAEDAATYYCQQYSGYPLTFGAGTKLELK	12.8

Could you now consider this next binder?
Data request: // RU Ag/250 RU mAbs lookup, key: mAb clone 15 (antibody, V domains shown) VH: QVQLKESGPGLVAPSQSLSITCTVSGFSLTSYGVSWVRQPPGKGLEWLGVIWGDGSTNYHSALISRLSISKDNSKSQVFLKLNSLQTDDTATYYCAKPDLYYDSPYAMDYWGQGTSVTVSS VL: DIQMTQSPASLSASVGETVTITCRASGNIHNYLAWYQQKQGKSPQLLVYNAKTLADGVPSRFSGSGSGTQYSLKINSLQPEDFGSYYCQHFWSTPWTFGGGTKLEIK
Data returned: 30.4
